Each item that follows carries a reported log10 Kd.
- system-under-test: T1, collagen I (UniProt P02452 162-1218; P08123 80-1119)
- T1 construct: collagen alpha-1(I) chain; collagen alpha-2(I) chain; Named only as collagen I; also called Cn I; Cn l
- T1 sequence (P02452 162-1218, chain 1 of 2): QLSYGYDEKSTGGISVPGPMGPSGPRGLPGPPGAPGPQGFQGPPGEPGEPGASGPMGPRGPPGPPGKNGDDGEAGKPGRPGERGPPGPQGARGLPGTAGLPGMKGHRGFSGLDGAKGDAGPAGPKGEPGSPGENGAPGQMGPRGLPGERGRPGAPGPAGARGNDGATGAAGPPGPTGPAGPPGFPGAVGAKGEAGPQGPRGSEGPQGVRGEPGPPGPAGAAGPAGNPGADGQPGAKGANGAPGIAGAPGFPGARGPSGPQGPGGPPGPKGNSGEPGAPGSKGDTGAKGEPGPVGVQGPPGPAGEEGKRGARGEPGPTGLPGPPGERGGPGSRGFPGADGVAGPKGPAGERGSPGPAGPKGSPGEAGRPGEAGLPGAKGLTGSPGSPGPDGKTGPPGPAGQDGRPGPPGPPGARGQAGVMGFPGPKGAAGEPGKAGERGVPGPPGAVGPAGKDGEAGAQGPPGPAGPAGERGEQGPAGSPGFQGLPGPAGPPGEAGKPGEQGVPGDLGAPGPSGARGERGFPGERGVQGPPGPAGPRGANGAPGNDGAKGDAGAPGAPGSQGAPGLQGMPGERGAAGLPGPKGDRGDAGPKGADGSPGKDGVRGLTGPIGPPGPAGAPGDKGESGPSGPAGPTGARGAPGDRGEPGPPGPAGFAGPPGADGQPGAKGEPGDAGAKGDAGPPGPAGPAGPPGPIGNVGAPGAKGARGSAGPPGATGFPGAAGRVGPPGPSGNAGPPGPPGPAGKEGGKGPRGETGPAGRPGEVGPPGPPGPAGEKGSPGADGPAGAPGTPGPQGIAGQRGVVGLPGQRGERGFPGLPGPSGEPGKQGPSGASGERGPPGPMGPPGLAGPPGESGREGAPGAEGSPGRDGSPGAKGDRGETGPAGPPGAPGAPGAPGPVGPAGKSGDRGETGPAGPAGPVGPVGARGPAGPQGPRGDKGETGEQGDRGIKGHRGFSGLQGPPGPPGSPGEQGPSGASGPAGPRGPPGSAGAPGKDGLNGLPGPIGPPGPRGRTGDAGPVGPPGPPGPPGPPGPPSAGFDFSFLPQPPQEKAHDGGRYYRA
- T1 sequence (P08123 80-1119, chain 2 of 2): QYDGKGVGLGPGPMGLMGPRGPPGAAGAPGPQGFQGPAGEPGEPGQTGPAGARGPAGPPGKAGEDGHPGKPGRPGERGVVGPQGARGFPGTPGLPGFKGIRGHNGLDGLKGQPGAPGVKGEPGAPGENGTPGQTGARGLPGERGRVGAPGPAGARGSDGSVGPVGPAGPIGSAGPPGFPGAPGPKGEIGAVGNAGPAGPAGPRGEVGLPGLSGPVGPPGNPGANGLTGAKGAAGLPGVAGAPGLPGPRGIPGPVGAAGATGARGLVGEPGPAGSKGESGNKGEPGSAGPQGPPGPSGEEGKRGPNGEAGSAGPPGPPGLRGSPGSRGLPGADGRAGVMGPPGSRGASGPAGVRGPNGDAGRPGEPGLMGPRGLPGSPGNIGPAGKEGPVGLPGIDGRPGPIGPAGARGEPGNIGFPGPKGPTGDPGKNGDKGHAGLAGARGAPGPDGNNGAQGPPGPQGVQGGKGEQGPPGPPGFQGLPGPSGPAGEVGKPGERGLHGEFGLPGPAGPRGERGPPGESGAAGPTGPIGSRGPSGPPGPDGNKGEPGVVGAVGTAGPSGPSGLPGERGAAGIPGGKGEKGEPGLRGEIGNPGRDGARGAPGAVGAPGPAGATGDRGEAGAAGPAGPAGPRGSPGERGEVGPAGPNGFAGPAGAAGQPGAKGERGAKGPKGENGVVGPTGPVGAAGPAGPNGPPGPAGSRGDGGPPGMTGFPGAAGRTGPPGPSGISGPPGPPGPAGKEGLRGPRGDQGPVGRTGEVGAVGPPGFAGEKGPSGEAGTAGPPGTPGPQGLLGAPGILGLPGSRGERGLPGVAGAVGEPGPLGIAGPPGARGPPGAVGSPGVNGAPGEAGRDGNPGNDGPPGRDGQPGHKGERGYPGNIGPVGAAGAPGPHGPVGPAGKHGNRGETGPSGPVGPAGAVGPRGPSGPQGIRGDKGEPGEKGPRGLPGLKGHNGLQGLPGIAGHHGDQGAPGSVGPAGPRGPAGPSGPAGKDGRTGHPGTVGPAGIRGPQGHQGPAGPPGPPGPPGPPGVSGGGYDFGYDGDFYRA
- experimental-details: ELISA; matrix component (0.25 ug/well in 0.1 M Na2CO3, overnight 4 C) immobilised on polystyrene plates; Emp forms 0-1.5 uM added for 1 h at RT, PBST washes; detected with polyclonal anti-Emp IgG and AP-conjugated anti-rabbit IgG; KD from steady-state curves, one-site binding model
- reported-conditions: both partners purified
readout-type: log10 Kd (log10 of the value in nM)

>  <binder>
full-length Emp protein (extracellular matrix protein Emp of Staphylococcus aureus, without the signal peptide) (natural protein, gene of 1,023 nucleotides; numbers count on: the protein without signal peptide and without His-tag; The vector (printed pQ30-UA, Qiagen) probably adds an N-terminal His6 (surmised); Primer EmpFor1UA starts at nt +76 (codon 26), which would give 315 residues against the printed 314; also called EmpFL; source: E. coli (TG1 transformants, plasmid pQemp), purified (Ni-NTA in 8 M urea, solubilized by …)) SVTESVDKKFVVPESGINKIIPAYDEFKNSPKVNVSNLTDNKNFVASEDKLNKIADSSAASKIVDKNFVVPESKLGNIVPEYKEINNRVNVATNNPASQQVDKHFVAKGPEVNRFITQNKVNHHFITTQTHYKKVITSYKSTHVHKHVNHAKDSINKHFIVKPSESPRYTHPSQSLIIKHHFAVPGYHAHKFVTPGHASIKINHFCVVPQINSFKVIPPYGHNSHRMHVPSFQNNTTATHQNAKVNKAYDYKYFYSYKVVKGVKKYFSFSQSNGYKIGKPSLNIKNVNYQYAVPSYSPTHYVPEFKGSLPAPRV

>  <log10 Kd>
1.43

$$$$
>  <binder>
Emp2 (central fragment of Emp) (domain or fragment, primers EmpFor2UA (+322) and EmpRev2UA (+648) relative to ATG; limits worked out from these positions and count on the precursor; source: E. coli (TG1 transformants, plasmid pQemp2), purified (Ni-NTA in 8 M urea, solubilized by stepwise dialysis)) YKEINNRVNVATNNPASQQVDKHFVAKGPEVNRFITQNKVNHHFITTQTHYKKVITSYKSTHVHKHVNHAKDSINKHFIVKPSESPRYTHPSQSLIIKHHFAVPGYHAH

>  <log10 Kd>
1.11

$$$$
>  <binder>
Emp1+2 (combination of Emp1 and Emp2) (domain or fragment, limits worked out from these positions and count on the precursor; source: E. coli (TG1 transformants, plasmid pQemp1 + 2), purified (Ni-NTA in 8 M urea, solubilized by stepwise dialysis)) ASVTESVDKKFVVPESGINKIIPAYDEFKNSPKVNVSNLTDNKNFVASEDKLNKIADSSAASKIVDKNFVVPESKLGNIVPEYKEINNRVNVATNNPASQQVDKHFVAKGPEVNRFITQNKVNHHFITTQTHYKKVITSYKSTHVHKHVNHAKDSINKHFIVKPSESPRYTHPSQSLIIKHHFAVPGYHAH

>  <log10 Kd>
1.49

$$$$
>  <binder>
Emp3 (C-terminal fragment of Emp) (domain or fragment, primers EmpFor3UA (+622) and EmpRev3UA (+1024, holds the stop codon) relative to ATG; limits worked out from these positions and count on the precursor; source: E. coli (TG1 transformants, plasmid pQemp3), purified (Ni-NTA in 8 M urea, solubilized by stepwise dialysis)) FAVPGYHAHKFVTPGHASIKINHFCVVPQINSFKVIPPYGHNSHRMHVPSFQNNTTATHQNAKVNKAYDYKYFYSYKVVKGVKKYFSFSQSNGYKIGKPSLNIKNVNYQYAVPSYSPTHYVPEFKGSLPAPRV

>  <log10 Kd>
1.51

$$$$
>  <binder>
Emp2+3 (combination of Emp2 and Emp3; N-truncated Emp) (domain or fragment, limits worked out from these positions and count on the precursor; source: E. coli (TG1 transformants, plasmid pQemp2 + 3), purified (Ni-NTA in 8 M urea, solubilized by stepwise dialysis)) YKEINNRVNVATNNPASQQVDKHFVAKGPEVNRFITQNKVNHHFITTQTHYKKVITSYKSTHVHKHVNHAKDSINKHFIVKPSESPRYTHPSQSLIIKHHFAVPGYHAHKFVTPGHASIKINHFCVVPQINSFKVIPPYGHNSHRMHVPSFQNNTTATHQNAKVNKAYDYKYFYSYKVVKGVKKYFSFSQSNGYKIGKPSLNIKNVNYQYAVPSYSPTHYVPEFKGSLPAPRV

>  <log10 Kd>
2.32

$$$$
